protein stability index for assorted variants
B1: NEUROD6 (parent)
chain: YHSPELTTPPGHGTLDNSKSMKPY

- Variants of: B1
- TEST DETAILS: protein stability index of a GFP-peptide fusion (GPS, HEK-293T) (PSI 1-6); higher = more stable;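 note: lentivirally expressed fusions sorted by FACS into six bins by GFP to DsRed ratio, PSI derived from sequencing read proportions per bin multiplied by bin number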
- SETUP CONDITIONS: c terminus: a fixed tail appended

T7M = 3.75

**Q:** Please give the measured protein stability index for this variant: Y1K
**A:** 4.93

**Q:** Could you tell me which protein stability index is on file for T7S ?
**A:** 1.96

**Q:** Entry E5D : reported protein stability index = ?
**A:** 2.76

**Q:** Look up protein stability index for this variant: Y1T
**A:** 4.76

**Q:** Which measured protein stability index value corresponds to K19Y ?
**A:** 1.9

**Q:** Name the recorded protein stability index for T14H .
**A:** 2.24

**Q:** What value of measured protein stability index is listed for P10K ?
**A:** 2.13

**Q:** Bench note: what protein stability index did G13K show?
**A:** 2.35

**Q:** Would you kindly share the measured protein stability index for M21Q ?
**A:** 2.32

**Q:** Quick one: protein stability index of T14M ?
**A:** 2.33

**Q:** Requested read-out: protein stability index. Entry: G11S
**A:** 2.17

**Q:** Which protein stability index reading was recorded for the variant Y24S ?
**A:** 2.36

**Q:** Request the reported protein stability index associated with N17Q
**A:** 2.52

**Q:** Entry under review: P23C . Reported protein stability index?
**A:** 1.87

**Q:** Looking for the measured protein stability index of H2T , can you help?
**A:** 3.61
